assay: Cytotoxicity against HAF assessed as growth inhibition after 96 hrs by SRB assay; settings: Homo sapiens
Readout kind: IC50 (µM)
Answers are plain numbers, in µM.

Solved cases (4 shown):
| Compound | U | IC50 |
| --- | --- | --- |
| C=C(C)[C@@H]1CC[C@]2(C(=O)O)CC[C@]3(C)[C@H](CC[C@@H]4[C@@]5(C)CC[C@H](NC(=O)CC6CCNCC6)C(C)(C)[C@@H]5CC[C@]43C)[C@@H]12 | µM | 9.21 |
| COc1cccc2c1C(=O)c1c(O)c3c(c(O)c1C2=O)C[C@@](O)(C(=O)CO)C[C@@H]3O[C@H]1C[C@H](N)[C@H](O)[C@H](C)O1 | µM | 0.016 |
| C=C(C)[C@@H]1CC[C@]2(C(=O)O)CC[C@]3(C)[C@H](CC[C@@H]4[C@@]5(C)CC[C@H](NC(=O)C6CCNCC6)C(C)(C)[C@@H]5CC[C@]43C)[C@@H]12 | µM | 4.45 |
| C=C(C)[C@@H]1CC[C@]2(C(=O)O)CC[C@]3(C)[C@H](CC[C@@H]4[C@@]5(C)CC[C@H](NC(=O)C6CCCNC6)C(C)(C)[C@@H]5CC[C@]43C)[C@@H]12 (stereo not given in full) | µM | 3.18 |

# ---- query compound ----
Exam item: Hello, please tell me recorded IC50 for this one: C=C(C)[C@@H]1CC[C@]2(C(=O)O)CC[C@]3(C)[C@H](CC[C@@H]4[C@@]5(C)CC[C@H](OC(=O)C6CCCNC6)C(C)(C)[C@@H]5CC[C@]43C)[C@@H]12 (stereo not given in full)
Marked response: 5.42
